B1: Unconventional myosin-Ie, residues 1051 to 1108; numbered along this chain, Q12965 (parent)
chain: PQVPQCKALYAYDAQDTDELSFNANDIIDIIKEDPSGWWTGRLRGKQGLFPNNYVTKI

variants of: B1; test: abundance fitness (aPCA) (normalised: wild type 0, dead -1); higher = more abundant; growth selection in yeast, the domain comes from the species named; conditions: Homo sapiens
Label Yes when abundance fitness >= -0.2; otherwise No.

* Y10C | Yes
* L20D | No
* I58D | Yes
* Q2R | No
* D34A | Yes
* G37C | No
* Q47A | No
* D16G | Yes
* G48M | No
* Q5V | Yes
* Q2H | No
* I30S | No
* G37P | No
* R42Y | No
* R42W | Yes
* Y12L | No
* G37Q | No
* F50Y | No
* F50E | No
* T56M | Yes
* N53H | Yes
* D29C | No
* R44I | No
* G45N | Yes
* S21F | No
* K7V | Yes
* D18E | Yes
* S21H | No
* Q15E | No
* G48N | No
* Q15C | No
* I27H | No
* N23K | Yes
* I27Q | No
* D34E | Yes
* Q5R | Yes
* A14F | No
* I27M | Yes
* L43M | Yes
* Y10I | No
* N52I | Yes
* L43A | Yes
* Q47N | No
* I58F | Yes
* I30K | No
* L20M | No
* L43K | No
* L9M | No
* S21M | No
* K32C | Yes
* A8E | No
* R44Q | Yes
* Y10L | Yes
* I30T | No
* G48K | No
* Y10P | No
* N53Y | No
* D29K | No
* T17Q | Yes
* P1T | Yes
* I30F | No
* N25F | No
* P1V | Yes
* N23M | Yes
* Q2K | Yes
* Y54L | Yes
* K32Y | Yes
* L20V | No
* L43C | No
* V55T | Yes
* D26V | No
* N52R | Yes
* A14H | No
* D29G | No
* Q15T | Yes
* I58S | Yes
* N52F | Yes
* T17M | Yes
* R42A | Yes
* Y10N | No
* G41F | No
* V55A | No
* E33C | No
* A14I | No
* T40H | No
* G41K | No
* G45W | No
* R44K | Yes
* D34G | Yes
* K46D | No
